In this section, each of the sequences is paired with its reported phosphorylation enrichment.
molecular target: Hck (UniProt P08631); assay: phosphorylation enrichment, bacterial display (enrichment ratio); higher = better substrate or ligand; peptides without Tyr show the background;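 further: 11-residue human phosphosite peptides and single-mutation variants displayed on the E. coli surface, counted by deep sequencing, each peptide's frequency after selection divided by its frequency in the unselected input library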;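 further: frequency after pTyr selection over input frequency; kinase dosed for 20-30% of maximal phosphorylation in three min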
Sequence (P08631 whole entry, looked up): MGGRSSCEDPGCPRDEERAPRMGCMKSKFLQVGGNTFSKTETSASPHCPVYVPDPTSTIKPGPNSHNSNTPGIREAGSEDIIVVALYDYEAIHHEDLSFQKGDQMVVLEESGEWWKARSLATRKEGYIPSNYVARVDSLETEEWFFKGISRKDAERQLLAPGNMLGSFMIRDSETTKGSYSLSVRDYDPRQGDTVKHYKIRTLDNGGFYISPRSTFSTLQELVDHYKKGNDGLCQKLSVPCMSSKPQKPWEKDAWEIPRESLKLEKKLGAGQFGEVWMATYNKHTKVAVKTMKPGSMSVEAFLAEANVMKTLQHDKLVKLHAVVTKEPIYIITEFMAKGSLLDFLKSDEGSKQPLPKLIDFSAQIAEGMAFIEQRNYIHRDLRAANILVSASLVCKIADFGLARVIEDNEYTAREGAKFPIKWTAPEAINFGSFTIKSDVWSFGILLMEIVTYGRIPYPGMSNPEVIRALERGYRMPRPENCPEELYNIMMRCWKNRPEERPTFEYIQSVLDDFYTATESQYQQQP
Just the number, please.

Q. Lab note: need phosphorylation enrichment for `AKIDGYIISYR` on Hck (UniProt P08631), anyone have it?
A. 0.604

Q. Proceed to LARNMYDKEYY [MET_Y1230_D1228N]
A. 0.605

Q. Input FTNRNYDLDFD [MYC_Y12_YF]
A. 0.634

Q. Entry to check: CGASGYSATST [CERT1_Y143_S138C]
A. 0.51

Q. What do we get for VDLIVYLWTNP [TK2_Y181_R183W] ?
A. 0.456

Q. # repeat for VNYQPYRKHKY [TEX37_Y28_D24N]
A. 0.451

Q. Moving on to the next sequence: LRRREYQRQDY [PRKRIP1_Y90]
A. 0.621

Q. Cool, now ALIKAYDKAVA [SMN1_Y43]
A. 0.29

Q. Next sequence up: LFSLGYHQSRW [GANAB_Y396]
A. 0.855

Q. Query KDFNKYVAFIE [KDM4B_Y31_YF] next
A. 0.505

Further cases:
Q. // fetch Hck (UniProt P08631) phosphorylation enrichment for TGNGYYFRVFS [MYBPC3_Y1136_I1131T]
A. 0.436

Q. Could you do the same for LDLSYYHTSSS [EMD_Y182_P183H] , please?
A. 0.452

Q. Let us now turn to EILLSYLRTGF [TGM1_Y365_YF]
A. 0.41

Q. Same thing, different sequence: SLQFEYVHFGG [CDC14A_Y591_S589F_YF]
A. 0.557
